This collection of values is drawn from PubChem BioAssay (NCI).

# Tested on: HL-60(TB) leukemia
# Assay Text: NCI-60 one-dose screen, 48 h
# Condition Notes: 10 µM unless noted
About 83,000 compounds went through this panel and 20% of them were active in at least one assay; those are over-represented in the sample as a whole. Active and inactive are the calls of the source. How the source made its calls: active means growth percent below 10; inactive means the rest.
Choose the fitting class; nothing outside YES for active, NO for inactive is accepted.

The following molecules have reported results that may help.
molecule=Cn1c(=O)[nH]c(=O)c2nc(CCC(=O)NCCC(=O)O)c(=O)[nH]c21 system="HL-60(TB) leukemia" label_value=NO
molecule=C=CCn1c(SCC(=O)Nc2ccc(C(=O)/C=C/c3cc(OC)c(OC)c(OC)c3)cc2)nnc1-c1ccccc1 system="HL-60(TB) leukemia" label_value=NO
molecule=O=c1[nH]cc(Cl)cc1O system="HL-60(TB) leukemia" label_value=NO
molecule=C=CC(=O)N1CCC[C@H](n2c(=O)n(-c3ccc(Oc4ccccc4)cc3)c3c(N)ncnc32)C1 system="HL-60(TB) leukemia" label_value=NO
molecule=COc1ccc(-c2nnc(-c3ccc4c(c3)nc(-c3ccncc3)n4C3CCCCC3)o2)cc1 system="HL-60(TB) leukemia" label_value=NO

Which outcome did this test record for the molecule `O=c1c2cc(F)ccc2oc2c(NCCNCCO)nc3ccccc3c12` ?
NO

Write down the call the test reported for this molecule. Item: `COc1ccc(/C=C/C(=O)c2ccc(OC)c(OC)c2)cc1O`
NO

How was Clc1ccc(-c2nnc(COc3ccc(C4=NNC(c5ccco5)C4)cc3)o2)cc1 (stereo unspecified) classified in this test?
NO

Record lookup: outcome of this test for `Cc1ccccc1CNc1ccc(N2CCOCC2)cc1` ?
NO

What classification did CCCC(=O)NC(c1ccc2c(c1)OCO2)c1ccc2cccnc2c1O (stereo unspecified) end up with in this test?
YES

Called result for `COc1cccc2nc(Nc3cccc(NC(=O)c4cc(N5CCOCC5)cc(C(F)(F)F)c4)c3)ccc12`
NO

What is the recorded call for this molecule in the test? CCOC(=O)c1nn(C2CCCCO2)c2ccc(NC(=O)CN3CCOCC3)cc12 (stereo unspecified)
NO

Recorded call for CCOC(=O)C(C)(CSSCC(C)(NC(=O)c1ccc2ccccc2c1)C(=O)OCC)NC(=O)c1ccc2ccccc2c1 (stereo unspecified) ?
NO

* * *

# Test system: HL-60(TB) leukemia
# Assay Text: NCI-60 one-dose screen, 48 h
# Condition Notes: 10 µM unless noted
About 83,000 compounds went through this panel and 20% of them were active in at least one assay; those are over-represented in the sample as a whole. Active and inactive are the calls of the source. The calls were made as follows: active = growth percent below 10; inactive = the rest.
Log the outcome using a class from 1 for active, -1 for inactive

Example entries begin here.
compound=COc1cccc(-c2nn(-c3ccccc3)cc2-c2ccnc(NCCNC(=O)Nc3ccc(Cl)c(Cl)c3)c2)c1 label_value=1
compound="COc1ccccc1S(=O)Nc1ccccc1 (centres undefined)" label_value=-1
compound=COc1cccc2c1C=C1CCCCC3=Cc4c(OC)cccc4OC13O2 label_value=-1

Please let me know the test result on file for `O=C(O)c1ccc[n+](CC(=O)N2CCN(c3cc4c(cc3F)c(=O)c(C(=O)O)cn4C3CC3)CC2)c1` .
-1

Per the records of this test, what outcome belongs to `Cc1cc2c(F)c(Oc3ncnn4cc(OC[C@@H](C)OC(=O)[C@H](C)N)c(C)c34)ccc2[nH]1` ?
-1

Hi, do you know how `COc1cc2nc(-c3ccc(C(F)(F)F)cc3)cc(OCCN3CCCC3)c2cc1OC` came out in this test?
-1

* * *

# Test system: HL-60(TB) leukemia
# Assay Text: NCI-60 one-dose screen, 48 h
# Condition Notes: 10 µM unless noted
About 83,000 compounds went through this panel and 20% of them were active in at least one assay; those are over-represented in the sample as a whole. Calls of active or inactive are those of the source. The calls were made as follows: active = growth percent below 10; inactive = the rest.
Tick one outcome: yes (active), no (inactive)

molecule=CC1(C)CC[C@]2(C(=O)NCCNCCN)CC[C@]3(C)C(=CC[C@@H]4[C@@]5(C)CCC(=O)C(C)(C)[C@@H]5CC[C@]43C)[C@@H]2C1 label_value=yes
molecule=O=C(c1ccc(Cl)cc1)N1CCN(c2ccnc3cc(Cl)ccc23)CC1 label_value=no
molecule=COC1=CC(c2ccc[nH]2)=N/C1=C\c1[nH]c(C)c(C(=O)CCCCC(=O)NCc2ccccc2)c1C label_value=no
molecule=COc1ccc2c(c1)C1=NN(C(=O)CO)[C@H](c3ccc(OC(F)(F)F)cc3)[C@@H]1CC2 label_value=no
molecule=Cc1ccc(/C=C2\SC(=S)N(CC(=O)NCCCN3CCOCC3)C2=O)cc1 label_value=no
molecule="COCCNC(C(=O)c1ccccc1)c1ccccc1 (centres undefined)" label_value=no
molecule=COc1ccc(-c2nc(N)ncc2Oc2ccccc2OC)c(O)c1 label_value=yes
molecule="NC(CSC(c1ccccc1)(c1ccccc1)c1ccccc1)C(=O)NCC(=O)O (centres undefined)" label_value=no

What is the recorded call for this molecule in the test? COc1ccc2c(c1)NC1=C(C(=O)OC1)C2c1cc(OC)c2c(c1)OCO2 (centres undefined)
yes

* * *

# Test system: HL-60(TB) leukemia
# Assay Text: NCI-60 one-dose screen, 48 h (100 = growth as untreated, 0 = no growth, -100 = all killed)
# Condition Notes: 10 µM unless noted
This is part of a sample that, as a whole, favours compounds with a hit. Of some 83,000 tested, about 20% had one in any assay. Active and inactive are the calls of the source. The calls were made as follows: active = growth percent below 10; inactive = the rest.
Please provide measured growth for the entries that follow.

molecule="N#CC1=C(N)Oc2c(sc3c(Br)cccc23)C1c1ccc(Cl)cc1 (stereo not given)" measured_result="-7.34% (active)"
molecule=O=c1oc2cc(OS(=O)(=O)c3ccccc3)c(Cl)cc2c2c1CCCCCC2 measured_result="87.6% (inactive)"
molecule=O=C(Cn1c(-c2ccc([N+](=O)[O-])cc2)nc2ccccc21)NNC(=O)c1cccnc1 measured_result="65.9% (inactive)"
molecule=Cc1sc(N=Nc2ccc(N(C)C)cc2)[n+]([O-])c1C measured_result="92.7% (inactive)"
molecule=Cc1cc(=O)[nH]c2c(C#N)cnn12 measured_result="106% (inactive)"
molecule=COc1ccc2c(c1)[n+](=O)c(/C=C/C(=O)c1cc(OC)c(OC)c(OC)c1)c(C)n2[O-] measured_result="-49.1% (active)"
molecule=Cc1ccc(S(=O)(=O)n2ccnc2)cc1 measured_result="124% (inactive)"
molecule=COc1cc(-c2cncn2-c2ccc(-c3nc4ccc(F)cc4s3)cc2)ccc1F measured_result="53.1% (inactive)"

Hi team, please reply with growth for each item in this list.
1. COC(=O)c1ccc2[nH]c(O)c(C(=Nc3ccc(N(C)C(=O)CN4CCN(C)CC4)cc3)c3ccc(C)cc3)c2c1
2. O=C1/C(=C/c2ccc(F)cc2)COc2ccc(O)cc21

["-55.7% (active)", "19.1% (inactive)"]

* * *

# System: HL-60(TB) leukemia
# Assay Text: NCI-60 one-dose screen, 48 h
# Condition Notes: 10 µM unless noted
The panel holds about 83,000 compounds, 20% with a hit somewhere; the sample as a whole holds those more often. Active and inactive are the calls of the source. Rule for the calls: active = growth percent below 10; inactive = the rest.
Outcome (select one): 1.0 for active, 0.0 for inactive

Outcome? `O=C1CSC(=S)N1Cc1cccnc1`
0.0

Dear colleague, could you share the recorded outcome for `O=C(O)c1ccc(-n2cc(CNc3ccc(Oc4ccccc4)cc3)c(-c3ccccc3)n2)cc1` when you have a moment?
0.0

Record request — test call for CC(C)(C)CC1(C)NC(=O)NC1=O (stereo not given)
0.0

# outcome recorded in this test, key = `Nn1c(Nc2ccc(S(=O)(=O)Nc3ncccn3)cc2)nnc(/C=C/c2c(O)ccc3ccccc23)c1=O`
0.0

Tell me the assay call for `FC(F)(F)c1cc(CNc2ncc(Br)c(Cl)n2)cc(C(F)(F)F)c1` please.
0.0

Kindly provide the recorded test outcome for the following molecule: `c1csc([C@@H]2C[C@@H]3Cc4ccc5ccccc5c4N2O3)c1`
0.0

Lab log entry: CCCC1CCC(O)(C(C)(O)C(=O)NC2C(=O)N3NCCCC3C(=O)N(O)C(C)C(=O)N3NCCCC3C(=O)N3NCC(O)CC3C(=O)NC(C)C(=O)OC2C(C)C)OC1CC (stereo not given) — outcome as called in the assay?
1.0

* * *

# Tested on: HL-60(TB) leukemia
# Assay Text: NCI-60 one-dose screen, 48 h
# Condition Notes: 10 µM unless noted
Compounds without any hit were thinned out: in the full panel of roughly 83,000, 20% have a hit. The source made the active and inactive calls. How the source made its calls: active means growth percent below 10; inactive means the rest.
Just give me one of these, please: active, inactive

Here are 5 compounds together with their reported answers.
compound=COc1cc(C(=O)C[n+]2ccccc2)ccc1OC(C)=O system="HL-60(TB) leukemia" label_value=inactive
compound=Clc1cc(Cl)cc(-c2ccc(-c3ccc(/C=N/NC4=NCCN4)cc3)s2)c1 system="HL-60(TB) leukemia" label_value=inactive
compound="COc1ccc(C2NC(=O)C(C#N)c3c2sc2c(F)cccc32)cc1 (configuration not stated)" system="HL-60(TB) leukemia" label_value=inactive
compound=Nc1nc2ccc(-c3nc4ccc5[nH]ncc5c4c4c3CCCC4)cc2s1 system="HL-60(TB) leukemia" label_value=inactive
compound=O=C(Nc1ccc(F)cc1)c1ccccc1 system="HL-60(TB) leukemia" label_value=inactive

Lab log entry: O=C1CCCN1C(O)CCN(Cc1ccccc1)Cc1ccc(Cl)cc1 (configuration not stated) — outcome as called in the assay?
inactive

Kindly provide the recorded test outcome for the following compound: COc1ccc(C2NCCc3c2[nH]c2ccccc32)cc1CN1CCN(c2ccc(F)cc2)CC1 (configuration not stated)
inactive

Dear colleague, could you share the recorded outcome for `COc1cc(Nc2nc(N[C@H]3CCCC[C@@H]3N)nc3cc[nH]c(=O)c23)cc(OC)c1` when you have a moment?
inactive

GET /call?item= `NC(=O)Cc1nc(O)cc(=O)[nH]1` returns the recorded outcome of this test.
inactive

Identify the outcome logged in this assay for the compound shown: `Cc1ccn2cc(Cc3cc(=O)oc4c3ccc3ccccc34)c(=O)nc2c1`
inactive

Hi, do you know how `O=C1C=CC(=O)N1c1ccc(N2C(=O)C=CC2=O)cc1` came out in this test?
active

Record lookup: outcome of this test for `CN(C)CCCn1c(=O)c2ccccc2c2ccccc21` ?
inactive
